# study target: SRPK1 (Homo sapiens)
# procedure details: SRPK1 assay, Method 1 (ADP-Glo luminescence)
# Assay type: biochemical
# measurement conditions: Method 1 (no asterisk): substrate Human SRSF1/SF2, 25° C. for 90 min, test compounds 30 μM top, 3-fold, duplicate
pIC50: −log10 of the molar value.
measured quantity: pIC50

For orientation, consider the following solved cases.
# compound, measured quantity, result number
rows = [
    ("CC1(O)CCN(c2ncc(C3CC3)cc2NC(=O)c2ccc(-c3ccncc3)o2)CC1 [Compound 136]", "pIC50", 7.44),
    ("O=C(Nc1cc(C(F)(F)F)cnc1N1CCC(O)CC1)c1cccc(-c2cn[nH]c2)n1 [Compound 100]", "pIC50", 7.22),
]

P: NC(=O)C1(O)CCN(c2ncc(C(F)(F)F)cc2NC(=O)c2ccc(C3CCOCC3)o2)CC1 [Compound 096]
Q: CC(=O)OC1CC2(CCN(c3ncc(C(F)(F)F)cc3NC(=O)c3ccc(C4CCOCC4)o3)CC2)C1 [Compound 059]
R: O=C(Nc1cc(C(F)(F)F)cnc1N1CCC(O)CC1)c1ccn(C2CCOCC2)n1 [Compound 103]
S: O=C(Nc1cc(C(F)(F)F)cnc1N1CCC(O)CC1)c1ccc(F)cn1 [Compound 089]
Sort entries by pIC50 from minimum to maximum value. Your task in answering is to list the labels in the requested order. S, R, Q, P
(S: 6.06, R: 6.87, Q: 7.10, P: 7.74)

----------
# study target: SRPK1 (Homo sapiens, UniProt Q96SB4)
# Sequence (Q96SB4 whole entry): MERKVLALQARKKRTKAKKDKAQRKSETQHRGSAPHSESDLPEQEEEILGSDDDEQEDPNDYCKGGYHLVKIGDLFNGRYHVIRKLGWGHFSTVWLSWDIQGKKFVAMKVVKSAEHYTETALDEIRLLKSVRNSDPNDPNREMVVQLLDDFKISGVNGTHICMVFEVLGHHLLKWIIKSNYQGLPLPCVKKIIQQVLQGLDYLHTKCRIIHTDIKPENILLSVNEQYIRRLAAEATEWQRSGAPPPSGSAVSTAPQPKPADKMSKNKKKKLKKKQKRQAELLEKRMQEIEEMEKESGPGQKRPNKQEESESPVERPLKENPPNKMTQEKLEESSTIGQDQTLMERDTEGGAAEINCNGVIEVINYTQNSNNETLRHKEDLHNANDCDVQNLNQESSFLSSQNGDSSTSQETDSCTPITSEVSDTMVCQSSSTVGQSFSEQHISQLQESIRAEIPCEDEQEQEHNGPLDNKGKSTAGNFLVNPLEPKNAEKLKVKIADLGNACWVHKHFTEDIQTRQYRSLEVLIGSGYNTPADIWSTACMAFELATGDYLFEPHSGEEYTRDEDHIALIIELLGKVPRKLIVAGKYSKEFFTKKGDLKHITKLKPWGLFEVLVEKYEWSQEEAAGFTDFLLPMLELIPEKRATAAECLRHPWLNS
# procedure details: SRPK1 assay, Method 2 (ADP-Glo luminescence)
# Assay type: biochemical
# measurement conditions: Method 2 (asterisk): substrate Human SRSF1/SF2 0.15 μM, ATP 4 μM, 25° C. for 3 h, test compounds 100 nM top, 3-fold, 10 dose
pIC50: −log10 of the molar value.
measured quantity: pIC50

# smiles string, pIC50
records = [
    ("Nc1cc(-c2ccc(C(=O)Nc3cc(C4CC4)cnc3N3CCC(O)CC3)o2)cc(N)n1", 9.61),
    ("O=C(Nc1cc(C2CC2)cnc1N1CCC(O)CC1)c1ccc(-c2cn[nH]c2)o1", 9.21),
    ("O=C(Nc1cc(C(F)(F)F)cnc1N1CCC(O)CC1)c1ccc(-c2cn[nH]c2)cn1", 8.49),
    ("O=C(Nc1cc(C2CC2)cnc1N1CCC(O)CC1)c1ccc(-c2ccnc(O)c2)o1", 8.85),
    ("Nc1cc(-c2ccc(C(=O)Nc3cc(C4CC4)cnc3N3CCC(O)CC3)o2)ccn1", 9.03),
]

A: Nc1cc(-c2ccc(C(=O)Nc3cc(C(F)(F)F)cnc3N3CCC(O)CC3)o2)ccn1
B: CC1(O)CCN(c2ncc(C3CC3)cc2NC(=O)c2ccc(-c3cn[nH]c3)o2)CC1
C: CC1(C(N)=O)CCN(c2ncc(C(F)(F)F)cc2NC(=O)c2ccc(C3CCOCC3)o2)CC1
D: O=C(Nc1cc(C(F)(F)F)cnc1N1CCC(O)CC1)c1ccc(-c2cn[nH]c2)o1
List these items ordered by pIC50, big to small. Thanks in advance for listing the labels in the requested order. B, D, A, C
(B: 9.11, D: 8.70, A: 8.40, C: 7.60)

----------
# study target: SRPK1 (Homo sapiens, UniProt Q96SB4)
# procedure details: SRPK1 assay, Method 1 (ADP-Glo luminescence)
# Format: biochemical
# measurement conditions: Method 1 (no asterisk): substrate Human SRSF1/SF2, 25° C. for 90 min, test compounds 30 μM top, 3-fold, duplicate
pIC50: −log10 of the molar value.
measured quantity: pIC50

For orientation, consider the following solved cases.
# compound, pIC50
rows = [
    ("O=C(Nc1cc(C2CC2)cnc1N1CCC(O)CC1)c1ccc(-c2ccncc2)o1 [Compound 034]", 7.61),
    ("O=C(Nc1cc(C(F)(F)F)cnc1N1CCC(O)CC1)c1ccc(-c2cnccn2)o1 [Compound 074]", 6.19),
    ("O=C1C=C(c2ccc(C(=O)Nc3cc(C(F)(F)F)cnc3N3CCC(O)CC3)o2)CCO1 [Compound 102]", 6.47),
]

a: Cn1cc(-c2ncc(C(F)(F)F)cc2NC(=O)c2ccc(C3CCOCC3)o2)cn1 [Compound 011]
b: O=C(Nc1cc(C(F)(F)F)cnc1N1CCC(F)(F)CC1)c1ccc(-c2ccncc2)o1 [Compound 070]
Endpoint returns the identifier whose pIC50 is numerically larger, either a or b . Please identify the chosen entry by its label. b

----------
# study target: UniProt:Q96SB4
# procedure details: SRPK1 assay, Method 1 (ADP-Glo luminescence)
# Type: biochemical
# measurement conditions: Method 1 (no asterisk): substrate Human SRSF1/SF2, 25° C. for 90 min, test compounds 30 μM top, 3-fold, duplicate
measured quantity: IC50 (µM)

# compound, IC50, µM
rows = [
    ("CC(=O)OC1CCN(c2ncc(C(F)(F)F)cc2NC(=O)c2ccc(-c3ccnnc3)o2)CC1 [Compound 049]", 2.34),
    ("CC(=O)OC1CCN(c2ncc(C3CC3)cc2NC(=O)c2ccc(-c3ccncc3)o2)CC1 [Compound 033]", 0.202),
    ("CC1(O)CCCN(c2ncc(C(F)(F)F)cc2NC(=O)C2CCC(C3CCOCC3)O2)CC1 (stereo not shown) [Compound 058]", 15.7),
]

1: O=C(Nc1cc(C(F)(F)F)cnc1N1CCc2n[nH]cc2C1)c1ccc(C2CCOCC2)o1 [Compound 078]
2: CC1(O)CCCN(c2ncc(C(F)(F)F)cc2NC(=O)c2ccc(C3CCOCC3)o2)CC1 (stereo not shown) [Compound 055]
Between 1 and 2 , which one shows the smaller IC50 number? // return label of chosen record 1
(1: 0.0279 µM, 2: 0.0451 µM)

I: CC1(O)CCN(c2ncc(C(F)(F)F)cc2NC(=O)c2ccc(C3CCOCC3)o2)CC1 [Compound 027]
II: O=C(Nc1cc(Cl)cnc1N1CCC(O)CC1)c1ccc(C2CCOCC2)o1 [Compound 007]
Which value of IC50 is greater, the one for I or the one for II ? Lab note: record the label of whichever item you select. II

a: CN1CCC(c2ncc(C(F)(F)F)cc2NC(=O)c2ccc(C3CCOCC3)o2)CC1 [Compound 071]
b: O=C(Nc1cc(C(F)(F)F)cnc1N1CCC(O)CC1)c1ccc(-c2nc[nH]n2)o1 [Compound 105]
c: O=C(Nc1cc(C(F)(F)F)cnc1N1CCC(O)CC1)c1ccc(-c2cc[nH]n2)o1 [Compound 084]
d: O=C(Nc1cc(C(F)(F)F)cnc1-c1cn[nH]c1)c1ccc(C2CCOCC2)o1 [Compound 012]
Sort ascending by IC50. Please list each label once, in the requested order. c, d, b, a

----------
# study target: SRPK1 (Homo sapiens)
# procedure details: SRPK1 assay, Method 1 (ADP-Glo luminescence)
# Format: biochemical
# measurement conditions: Method 1 (no asterisk): substrate Human SRSF1/SF2, 25° C. for 90 min, test compounds 30 μM top, 3-fold, duplicate
pIC50: −log10 of the molar value.
Listed compounds paired with reported pIC50

Check out these entries, answers already filled in.
# smiles string, study target, pIC50
measured = [
    ("O=C(Nc1cc(C(F)(F)F)cnc1N1CCC(O)CC1)c1ccc(-c2ccncc2)o1", "SRPK1 (Homo sapiens)", 7.10),
    ("C[C@@H]1C[C@@H](O)CCN1c1ncc(C(F)(F)F)cc1NC(=O)c1ccc(-c2cc(N)nc(N)c2)o1", "SRPK1 (Homo sapiens)", "< 4.52"),
    ("C[C@@H]1C[C@@H](O)CCN1c1ncc(C2CC2)cc1NC(=O)c1ccc(-c2ccnc(N)c2)o1", "SRPK1 (Homo sapiens)", "< 4.52"),
    ("O=C(Nc1cc(C(F)(F)F)cnc1N1CCC(O)CC1)c1ccc(Cl)cn1", "SRPK1 (Homo sapiens)", 5.90),
    ("Nc1cc(-c2ccc(C(=O)Nc3cc(C(F)(F)F)cnc3N3CCc4[nH]ncc4C3)o2)cc(N)n1", "SRPK1 (Homo sapiens)", "< 4.52"),
    ("O=C(Nc1cc(C(F)(F)F)cnc1N1CCC(O)CC1)c1cc(Cl)ccn1", "SRPK1 (Homo sapiens)", "< 4.52"),
    ("CC1(O)CCN(c2ncc(Cl)cc2NC(=O)c2ccc(C3CCOCC3)o2)CC1", "SRPK1 (Homo sapiens)", 6.77),
]

Here is another compound to look at.
Need pIC50 of CC1(CN)CCN(c2ncc(C(F)(F)F)cc2NC(=O)c2ccc(C3CCOCC3)o2)CC1 , thanks. < 4.52

----------
# study target: UniProt:Q96SB4
# procedure details: SRPK1 assay, Method 1 (ADP-Glo luminescence)
# Format: biochemical
# measurement conditions: Method 1 (no asterisk): substrate Human SRSF1/SF2, 25° C. for 90 min, test compounds 30 μM top, 3-fold, duplicate
pIC50: −log10 of the molar value.
measured quantity: pIC50

# smiles string, pIC50
data = [
    ("CC1(O)CCN(c2ncc(Cl)cc2NC(=O)c2ccc(-c3ccncc3)o2)CC1", 6.46),
]

I: O=C(Nc1cc(C(F)(F)F)cnc1N1CCC(O)CC1)c1ccc(-c2ccnc(O)c2)o1
II: O=C(Nc1cc(C(F)(F)F)cnc1N1CCC2(CC1)CC(O)C2)c1ccc(C2CCOCC2)o1
III: O=C(Nc1cc(C(F)(F)F)cnc1N1CCC(O)CC1)c1cccc(Cl)n1
IV: O=C(O)c1ccc(C(=O)Nc2cc(C(F)(F)F)cnc2N2CCC(O)CC2)o1
V: O=C(Nc1cc(C(F)(F)F)cnc1N1CCC(O)CC1)c1ccc(C2CCNCC2)o1
Falling order of pIC50, please. Your answer should be the labels, listed in the requested order. I, II, III, IV, V
